experiment: Cytotoxicity test, CCK-8, 24 h; assay type: cell-based; details: human, HCT-8 cells
Documented IC50 at 24 h across a set of compounds
Mention the unit after the number when you answer.

> print(dat)
                                   compound  measurement
1  O=Cc1ccc(CO)o1 [5-HMF, 5-hydroxymethylfurfural]      9.94 mM

Moving on to another compound below.
*Q* # IC50 at 24 h lookup, item OCc1ccc(CO)o1 [DHMF, 2,5-dihydroxymethylfuran]
*A* 26.6 mM

Provenance of the data: paper PMC7214591
